Molecular target: CCR4 (Homo sapiens)
Construct: cells expressing CCR4 (e.g., CEM cells, available from the ATCC); host or cells: CEM cells
Sequence (P51679 1-360): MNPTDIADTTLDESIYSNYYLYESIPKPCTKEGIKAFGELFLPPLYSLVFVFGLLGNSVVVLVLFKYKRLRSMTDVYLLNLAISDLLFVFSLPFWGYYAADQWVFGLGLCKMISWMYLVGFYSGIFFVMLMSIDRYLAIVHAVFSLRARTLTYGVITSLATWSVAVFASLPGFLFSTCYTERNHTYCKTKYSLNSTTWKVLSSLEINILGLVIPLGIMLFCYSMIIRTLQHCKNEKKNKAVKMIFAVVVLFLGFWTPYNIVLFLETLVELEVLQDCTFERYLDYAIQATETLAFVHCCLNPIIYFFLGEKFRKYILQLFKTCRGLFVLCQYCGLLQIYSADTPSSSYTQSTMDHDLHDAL
Test: CCR4 binding assay: inhibition of 125I-TARC binding to cells expressing CCR4 (e.g., CEM cells)
Details: CCR4 antagonist activity, inhibition of 125I-TARC binding; read-out: IC50
From the text: This example illustrates a CCR4 binding assay that can be used for evaluating the compounds of the present invention. Detection of Radiolabelled TARC and/or MDC Binding to CCR4 ^125I-labelled TARC and MDC are available from commercial sources (e.g., Amersham-Pharmacia or Perkin Elmer Life Sciences). All buffers and materials are available from commercial sources (e.g., Gibco BRL, Sigma). […]
observedProperty: IC50

sampleSmiles	result
CC(C)(C)c1csc(NCc2ccccc2)n1	< 1000 nM
CC(C)(C)c1csc(Nc2cccc3ncccc23)n1	< 1000 nM
FC(F)(F)c1ccccc1CN(Cc1csc(Nc2cccc3ncccc23)n1)CC1CCCCC1	< 1000 nM
CC(C)(C)c1csc(Nc2cccc3ccccc23)n1	> 1000 nM
CC(C)(C)Cc1csc(Nc2cccc3ccccc23)n1	> 1000 nM
Cc1cccc(Nc2nc(C(C)(C)C)cs2)c1C	> 1000 nM
CCCc1sc(Nc2cccc3ccccc23)nc1C(C)(C)C	> 1000 nM
Cc1cccc(Nc2nc(CN(CC(C)C)CC(C)C)co2)c1C	< 1000 nM
CC(=O)c1csc(Nc2cccc3ccccc23)n1	> 1000 nM
Cc1sc(Nc2cccc3ccccc23)nc1C(C)(C)C	> 1000 nM
CC(C)CCCc1ccccc1Nc1nc(C(C)(C)C)cs1	< 1000 nM
Cn1ccc2c(Nc3nc(C(C)(C)C)cs3)cccc21	< 1000 nM
Cc1c(Br)cccc1Nc1nc(C(C)(C)C)cs1	> 1000 nM
c1ccc(CN2CCc3sc(Nc4cccc5ccccc45)nc3C2)cc1	< 1000 nM
CC(C)c1csc(Nc2cccc3ccccc23)n1	> 1000 nM
CC(C)(C)c1csc(Nc2ccc(Cl)c3ccccc23)n1	< 1000 nM
CC(C)(C)c1csc(Nc2cccnc2CCCC2CCCC2)n1	> 1000 nM
Cn1ccc2c(Nc3nc(CN(Cc4ccccc4OC(F)(F)F)CC4CCCCC4)cs3)cccc21	< 1000 nM
CC(C)(C)c1csc(Nc2ccccc2N2CCOCC2)n1	< 1000 nM
CC(C)(C)c1csc(Nc2cccc3c2CCCC3)n1	> 1000 nM
CCOC(=O)CC(C)(C)c1csc(Nc2cccc3ccccc23)n1	> 1000 nM

###

Molecular target: CCR4 (Homo sapiens)
Construct: cells expressing CCR4 (e.g., CEM cells, available from the ATCC); host or cells: CEM cells
Test: CCR4 binding assay: inhibition of 125I-TARC binding to cells expressing CCR4 (e.g., CEM cells)
Text: This example illustrates a CCR4 binding assay that can be used for evaluating the compounds of the present invention. Detection of Radiolabelled TARC and/or MDC Binding to CCR4 ^125I-labelled TARC and MDC are available from commercial sources (e.g., Amersham-Pharmacia or Perkin Elmer Life Sciences). All buffers and materials are available from commercial sources (e.g., Gibco BRL, Sigma). […]

sampleSmiles	IC50
Clc1ccc2nc(Nc3cccc4ccccc34)sc2c1	> 1000 nM

Data origin, for the record: patent US7144903B2
